Measured values drawn from paper PMC9103715 for this set.

Readout Kind: melting point

Nc1c(C(=O)O)cnn1-c1ccc(S(=O)(=O)NCc2ccccc2)cc1 :: 207 to 210 °C
CCN(CC)S(=O)(=O)c1ccc(C(=O)Nc2cccc3cc(S(=O)(=O)O)ccc23)cc1 (hydrate or solvate) :: > 300 °C
CCCCN(CCCC)S(=O)(=O)c1ccc(C(=O)Nc2cccc3cc(S(=O)(=O)O)ccc23)cc1 (hydrate or solvate) :: > 300 °C
O=C(Nc1cccc2cc(S(=O)(=O)O)ccc12)c1ccc(S(=O)(=O)NCCc2ccccc2)cc1 (hydrate or solvate) :: > 300 °C
Nc1c(C(=O)O)cnn1-c1ccc(S(=O)(=O)N(Cc2ccccc2)Cc2ccccc2)cc1 :: 168 to 170 °C
CCCN(CCC)S(=O)(=O)c1ccc(-n2ncc(C(=O)O)c2N)cc1 [Compound 19b] :: 167 to 168 °C

Shifting focus to the compound that follows.
Supply measured melting point of CCCNS(=O)(=O)c1ccc(-n2ncc(C(=O)O)c2N)cc1 [Compound 18b] in your reply.
215 to 218 °C

====

Target: Panx-1 channels (Mus musculus, UniProt Q9JIP4)
Construct: expressed in transfected cells; host or cells: Xenopus laevis oocytes injected with in vitro-transcribed mRNA
Sequence (Q9JIP4 whole entry): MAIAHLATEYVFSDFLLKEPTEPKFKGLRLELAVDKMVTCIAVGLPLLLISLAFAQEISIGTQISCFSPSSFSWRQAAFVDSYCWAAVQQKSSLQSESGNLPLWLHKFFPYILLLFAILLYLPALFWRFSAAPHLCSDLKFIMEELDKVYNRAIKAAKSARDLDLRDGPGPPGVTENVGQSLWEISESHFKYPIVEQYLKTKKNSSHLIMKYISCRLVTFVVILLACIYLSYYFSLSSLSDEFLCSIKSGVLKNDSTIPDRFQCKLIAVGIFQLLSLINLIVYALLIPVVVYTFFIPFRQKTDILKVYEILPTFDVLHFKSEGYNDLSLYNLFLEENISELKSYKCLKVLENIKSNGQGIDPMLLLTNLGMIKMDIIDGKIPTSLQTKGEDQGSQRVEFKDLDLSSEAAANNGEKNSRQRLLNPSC
Assay: Voltage clamp on Xenopus laevis oocytes expressing Panx-1 channels
Format: cell-based
Conditions: 50 µM; voltage clamp, Xenopus laevis oocytes expressing Panx-1 channels; read-out: I (%) inhibition of Panx-1 currents
Each entry belongs to exactly one class, chosen by where its inhibition at 50 µM falls: LOW = under 30%, MID = from 30% up to 60%, HIGH = 60% and over

CCCN(CCC)S(=O)(=O)c1ccc(C(=O)O)cc1 [Probenecid, reference compound] :: LOW
O=C(O)c1ccc(CNc2cccc3cc(S(=O)(=O)O)ccc23)cc1 :: HIGH
O=S(=O)(O)c1ccc2c(NCc3ccccc3)cccc2c1 :: MID
CCNS(=O)(=O)c1ccc(-n2ncc(C(=O)O)c2N)cc1 [Compound 18a] :: LOW
CCN(CC)S(=O)(=O)c1ccc(-n2ncc(C(=O)O)c2N)cc1 [Compound 19a] :: LOW

Which of the defined bands does the recorded inhibition at 50 µM of CCCCN(CCCC)S(=O)(=O)c1ccc(C(=O)Nc2cccc3cc(S(=O)(=O)O)ccc23)cc1 sit within?
HIGH

Which of the defined bands does the recorded inhibition at 50 µM of CCCN(CCC)S(=O)(=O)c1ccc(C(=O)Nc2cccc3cc(S(=O)(=O)O)ccc23)cc1 sit within?
MID

Which of the defined bands does the recorded inhibition at 50 µM of O=C(O)c1cnn(-c2ccc(S(=O)(=O)NCCc3ccccc3)cc2)c1NCCc1ccccc1 sit within?
LOW

Which of the defined bands does the recorded inhibition at 50 µM of O=S(=O)(O)c1ccc2c(NCCCCc3ccccc3)cccc2c1 sit within?
MID

Which of the defined bands does the recorded inhibition at 50 µM of Nc1c(C(=O)O)cnn1-c1ccc(S(=O)(=O)NCc2ccccc2)cc1 sit within?
LOW

Which of the defined bands does the recorded inhibition at 50 µM of O=C(Nc1cccc2cc(S(=O)(=O)O)ccc12)c1ccc(S(=O)(=O)N(Cc2ccccc2)Cc2ccccc2)cc1 sit within?
HIGH
